Origin of the recorded values: paper PMC11243625

Each record here notes measured melting point.

CN(Cc1cn(CSc2ccccc2)nn1)S(=O)(=O)c1cccc2cccnc12 = 118 to 119 °C

-- ask Endpoint output: melting point of O=S(=O)(NCc1cn(-c2ccnc3c(Br)cccc23)nn1)c1cccc2cccnc12 [Compound 10a] . Value?
-- reply 194 to 195 °C

-- ask And CN(Cc1cn(-c2ccnc3c(Br)cccc23)nn1)S(=O)(=O)c1cccc2cccnc12 [Compound 10b] ?
-- reply 206 to 207 °C

-- ask Another: C=C(Cn1cc(CNS(=O)(=O)c2cccc3cccnc23)nn1)[C@@H]1CC[C@]2(COC(C)=O)CC[C@]3(C)[C@H](CC[C@@H]4[C@@]5(C)CC[C@H](OC(C)=O)C(C)(C)[C@@H]5CC[C@]43C)[C@@H]12 [Compound 14a]
-- reply 148 to 149 °C

-- ask Same question for CCCCn1cc(CN(C)S(=O)(=O)c2cccc3cccnc23)nn1 [Compound 12b] please.
-- reply 74 to 75 °C

-- ask Do the same for `O=[N+]([O-])c1ccc(Cn2cc(CNS(=O)(=O)c3cccc4cccnc34)nn2)cc1` please
-- reply 135 to 136 °C

-- ask Can you handle `CN(Cc1cn(Cc2ccccc2)nn1)S(=O)(=O)c1cccc2cccnc12` next?
-- reply 103 to 105 °C

-- ask Now this one: `O=S(=O)(NCc1cn(Cc2ccccc2)nn1)c1cccc2cccnc12`
-- reply 125 to 126 °C

-- ask Would you mind doing `O=S(=O)(NCc1cn(Cc2ccc(F)cc2)nn1)c1cccc2cccnc12` as well?
-- reply 118 to 119 °C

-- ask Further, for `N#Cc1ccc(Cn2cc(CNS(=O)(=O)c3cccc4cccnc34)nn2)cc1` ?
-- reply 110 to 111 °C

----------
System: NHDF
Test: WST-1 test, normal human dermal fibroblasts
Type: cell-based
Settings: 72 h, WST-1, normal cells
observable: IC50

-- ask Form entry - test system: NHDF; read-out: IC50; compound: N.N.[Cl][Pt][Cl] [Cisplatin, reference compound]
-- reply > 500 µM

----------
Tested on: A549
Experiment: WST-1 test, lung cancer cells
Format: cell-based, human
Conditions: Homo sapiens, A549, 72 h, read-out: IC50 A-549
pIC50: −log10 of the molar value.
observable: pIC50

These recorded examples may help you get a feel for the data.
O=S(=O)(NCc1cn(-c2ccnc3c(Br)cccc23)nn1)c1cccc2cccnc12 [Compound 10a] = 3.95
CN(Cc1cn(Cc2ccc(C#N)cc2)nn1)S(=O)(=O)c1cccc2cccnc12 = 6.10
Cc1cn(C2CC(n3cc(CNS(=O)(=O)c4cccc5cccnc45)nn3)C(CO)O2)c(=O)[nH]c1=O (centres unmarked) [Compound 11a] = 4.74

I. CCCCn1cc(CN(C)S(=O)(=O)c2cccc3cccnc23)nn1 [Compound 12b]
II. O=S(=O)(NCc1cn(CSc2ccccc2)nn1)c1cccc2cccnc12
-- ask Return label of the item with the larger pIC50. Candidates: I , II . // caller expects the label of the chosen entry
-- reply II
(II: 5.43, I: 3.72)

----------
Test system: A549
Assay: WST-1 test, lung cancer cells
Assay type: cell-based, human
Details: Homo sapiens, A549, 72 h, read-out: IC50 A-549
observable: IC50 (µM)

Cc1cn(C2CC(n3cc(CN(C)S(=O)(=O)c4cccc5cccnc45)nn3)C(CO)O2)c(=O)[nH]c1=O (stereo not drawn) [Compound 11b] = 1.29
CN(Cc1cn(-c2ccnc3c(Br)cccc23)nn1)S(=O)(=O)c1cccc2cccnc12 [Compound 10b] = 1.77

----------
Here the recorded IC50 is given for each entry.
Test system: NHDF
Assay: WST-1 test, normal human dermal fibroblasts
Format: cell-based
Details: Homo sapiens, NHDF; 72 h, WST-1, normal cells

Some solved entries appear below for comparison.
CN(Cc1cn(-c2ccnc3cc(Cl)ccc23)nn1)S(=O)(=O)c1cccc2cccnc12 [Compound 9b] = > 500 µM
C=C(Cn1cc(CNS(=O)(=O)c2cccc3cccnc23)nn1)[C@@H]1CC[C@]2(COC(C)=O)CC[C@]3(C)[C@H](CC[C@@H]4[C@@]5(C)CC[C@H](OC(C)=O)C(C)(C)[C@@H]5CC[C@]43C)[C@@H]12 [Compound 14a] = > 500 µM

-- ask IC50 lookup needed for O=S(=O)(NCc1cn(Cc2ccccc2)nn1)c1cccc2cccnc12 [Compound 4a] , thanks.
-- reply > 500 µM

----------
Tested on: A549
Experiment: WST-1 test, lung cancer cells
Format: cell-based, human
Conditions: Homo sapiens, A549, 72 h, read-out: IC50 A-549
observable: IC50 (µM)

A. CN(Cc1cn(Cc2ccccc2)nn1)S(=O)(=O)c1cccc2cccnc12 [Compound 4b]
B. CN(Cc1cn(-c2ccnc3cc(Cl)ccc23)nn1)S(=O)(=O)c1cccc2cccnc12 [Compound 9b]
C. O=[N+]([O-])c1ccc(Cn2cc(CNS(=O)(=O)c3cccc4cccnc34)nn2)cc1 [Compound 7a]
-- ask # rank_down: sort by IC50, max first Quick reminder: the answer is the labels in the order asked.
-- reply C, A, B

----------
// reported pIC50 for each item listed
System: NHDF
Assay: WST-1 test, normal human dermal fibroblasts
Assay type: cell-based
Settings: Homo sapiens, NHDF; 72 h, WST-1, normal cells
Protocol: Hybrids 4–14 were tested as anticancer agents against four human cancer cell lines: colon cancer (Caco-2), glioblastoma (SNB-19), lung cancer (A549), ovarian cancer (SKOV-3), and normal human dermal fibroblasts (NHDFs). Cisplatin was used as the reference substance. […] Cell cultures were performed in 96-well plates (Nunc Thermo Fisher Scientific, Waltham, MA, USA). […] Absorbance was measured at λ = 450 nm using a UVM340 microplate reader (Biogenet, Józefów, Poland). […]
# reply with the number alone; pIC50 is -log10 of concentration in mol/L

Cc1cn(C2CC(n3cc(CNS(=O)(=O)c4cccc5cccnc45)nn3)C(CO)O2)c(=O)[nH]c1=O (stereo not drawn) [Compound 11a] = 3.71

Attention now turns to another entry.
-- ask What does the data say about its pIC50? Entry: CCCCn1cc(CN(C)S(=O)(=O)c2cccc3cccnc23)nn1 [Compound 12b]
-- reply 3.62

----------
System: NHDF
Assay: WST-1 test, normal human dermal fibroblasts
Assay type: cell-based
Details: Homo sapiens, NHDF; 72 h, WST-1, normal cells
observable: IC50 (µM)
Kindly provide the numeric value in µM only, without the unit symbol.

Take a look at these entries with their results.
CCOC(=O)CCn1cc(CNS(=O)(=O)c2cccc3cccnc23)nn1 [Compound 13a] = 223
CN(Cc1cn(-c2ccnc3c(Br)cccc23)nn1)S(=O)(=O)c1cccc2cccnc12 [Compound 10b] = 26.2
O=S(=O)(NCc1cn(CSc2ccccc2)nn1)c1cccc2cccnc12 [Compound 8a] = 40.6
Cc1cn(C2CC(n3cc(CN(C)S(=O)(=O)c4cccc5cccnc45)nn3)C(CO)O2)c(=O)[nH]c1=O (stereo not shown) [Compound 11b] = 98.3
CN(Cc1cn(Cc2ccc(C#N)cc2)nn1)S(=O)(=O)c1cccc2cccnc12 [Compound 5b] = 9.16

-- ask Form field - read-out: IC50; system: NHDF; submitted item: O=[N+]([O-])c1ccc(Cn2cc(CNS(=O)(=O)c3cccc4cccnc34)nn2)cc1 [Compound 7a]
-- reply 169

-- ask Lookup CN(Cc1cn(Cc2ccccc2)nn1)S(=O)(=O)c1cccc2cccnc12 [Compound 4b]
-- reply 191

----------
System: SKOV-3
Assay: WST-1 test, ovarian cancer cells
Type: cell-based, human
Details: Homo sapiens, SK-OV-3, 72 h
Description: Hybrids 4–14 were tested as anticancer agents against four human cancer cell lines: colon cancer (Caco-2), glioblastoma (SNB-19), lung cancer (A549), ovarian cancer (SKOV-3), and normal human dermal fibroblasts (NHDFs). Cisplatin was used as the reference substance. […] Cell cultures were performed in 96-well plates (Nunc Thermo Fisher Scientific, Waltham, MA, USA). […] Absorbance was measured at λ = 450 nm using a UVM340 microplate reader (Biogenet, Józefów, Poland). […]
pIC50: −log10 of the molar value.
observable: pIC50

Known pIC50 results, listed for orientation:
CN(Cc1cn(-c2ccnc3c(Br)cccc23)nn1)S(=O)(=O)c1cccc2cccnc12 [Compound 10b] = 4.61
O=S(=O)(NCc1cn(-c2ccnc3c(Br)cccc23)nn1)c1cccc2cccnc12 [Compound 10a] = 4.02
Cc1cn(C2CC(n3cc(CNS(=O)(=O)c4cccc5cccnc45)nn3)C(CO)O2)c(=O)[nH]c1=O (stereo not shown) [Compound 11a] = 3.84
CCOC(=O)CCn1cc(CN(C)S(=O)(=O)c2cccc3cccnc23)nn1 [Compound 13b] = 4.05

A. O=S(=O)(NCc1cn(-c2ccnc3cc(Cl)ccc23)nn1)c1cccc2cccnc12
B. O=[N+]([O-])c1ccc(Cn2cc(CNS(=O)(=O)c3cccc4cccnc34)nn2)cc1
C. CCCCn1cc(CNS(=O)(=O)c2cccc3cccnc23)nn1 [Compound 12a]
D. CN(Cc1cn(-c2ccnc3cc(Cl)ccc23)nn1)S(=O)(=O)c1cccc2cccnc12
E. Cc1cn(C2CC(n3cc(CN(C)S(=O)(=O)c4cccc5cccnc45)nn3)C(CO)O2)c(=O)[nH]c1=O (stereo not shown) [Compound 11b]
-- ask # ascending order, key=pIC50 Answer format: list of labels, ordered as asked.
-- reply A, C, B, E, D

A. O=S(=O)(NCc1cn(CSc2ccccc2)nn1)c1cccc2cccnc12
B. CCOC(=O)CCn1cc(CNS(=O)(=O)c2cccc3cccnc23)nn1 [Compound 13a]
C. CN(Cc1cn(Cc2ccc(C#N)cc2)nn1)S(=O)(=O)c1cccc2cccnc12
-- ask Task field, ranking: reported pIC50, descending order. Kindly provide the labels arranged according to the requested ordering.
-- reply C, B, A
